assay: in vitro; conditions: human, hela cells, % viability
endpoint: viability at 28.5 h, 10 µM

### Prompt Please give the documented viability at 28.5 h, 10 µM of CC(NS(=O)(=O)c1ccccc1Cl)C(=O)N1CCCC1 (centres unmarked)
### Response 93.2%

### Prompt Please give the documented viability at 28.5 h, 10 µM of "O=C(O)c1ccc(S(=O)(=O)Nc2nnc(C(F)(F)F)s2)cc1"
### Response 91.5%

### Prompt Please give the documented viability at 28.5 h, 10 µM of "O=C(O)COc1c(-c2ccco2)oc2ccccc2c1=O"
### Response 96.9%

### Prompt Please give the documented viability at 28.5 h, 10 µM of FC(F)(F)c1nc2ccccc2nc1OC1CCOC1 (centres unmarked)
### Response 99.6%

### Prompt Please give the documented viability at 28.5 h, 10 µM of CC(Sc1ccccc1)C(=O)NCCN1CCOCC1 (centres unmarked)
### Response 95.9%

====

Reported values of viability at 28.5 h, 10 µM for individual entries
assay: in vitro; details: human, hela cells, % viability
Numbers only; they are read as %.

Field: example entries. Status: answers known.
compound	viability at 28.5 h, 10 µM, %
CCCCC(CC)CN1CNC(=S)NC1 (centres unmarked) [CBK265404]	105
COc1ccc(N2C(=O)C3C(CC(C)C)NC4(C(=O)N(CC(=O)Nc5ccc(C)cc5)c5ccccc54)C3C2=O)cc1 (centres unmarked) [CBK266034]	95.9
COc1ccc([C@@]23CC[C@@H](NC(=O)N(C)c4ccc(C)cc4)C[C@@H]2N(C)CC3)cc1OC [CBK045681T]	89.2
Cc1nc(NCc2ccc(C(F)(F)F)cc2)nc(N2CCN(C)CC2)n1 [CBK023866]	112
O=C(Cc1csc(-c2ccc(Cl)cc2)n1)NCC1CCCN1 (centres unmarked) [CBK160982]	106
CN(Cc1cc(C(C)(C)C)c(O)c(C(C)(C)C)c1)Cc1cc(C(C)(C)C)c(O)c(C(C)(C)C)c1 [CBK261980]	97
NS(=O)(=O)c1ccc(NC(=S)NNC(=S)Nc2ccc(F)cc2F)cc1 [CBK267102]	93.3
O=C(NCC(F)F)c1cn2cc(-c3cccs3)n(CC3CC3)c(=O)c2n1 [CBK307347]	105
c1cc(C2CCCCN2Cc2ccc3[nH]ccc3c2)nc(Nc2nccs2)n1 (centres unmarked) [CBK286109]	83.6
N[C@@H]1CCCN(C(=O)c2ccccc2)[C@H]1c1ccccc1F [CBK281405]	106

### Prompt Please give the documented viability at 28.5 h, 10 µM of CN(C)S(=O)(=O)N1CCN(Cc2ccccc2)CC1 [CBK263638]
### Response 109

### Prompt Please give the documented viability at 28.5 h, 10 µM of CCOC(=O)c1c(-c2ccc(C)o2)csc1NC(=O)CN1CCCCC1C (centres unmarked) [CBK265917]
### Response 105

### Prompt Please give the documented viability at 28.5 h, 10 µM of CC1(C)CCCN1C1=NC(=O)C(c2ccccc2)O1 (centres unmarked) [CBK023070]
### Response 104

### Prompt Please give the documented viability at 28.5 h, 10 µM of Cn1c(=O)[nH]c(=O)c2c1nc(SCCN1CCCCC1)n2CCCc1ccccc1 [CBK269469]
### Response 91.7
